Test system: human rhabdosarcoma cells
assay-name: pRB quantification, same procedure, rhabdosarcoma cells
Type: cell-based
applied-conditions: Table 9, in association with SiRNA Integrin alpha 3+RGDSPC+SiRNA Integrin beta 1+SiRNA Syndecan 1 (SEQ ID NO: 31, 32, 164 to 187)
Binary call on pRB: fulfilled from 9 upward, not fulfilled beneath that.

| residue-string | discrete-label |
| --- | --- |
| GTPGPAPTKLSAISMLYLDSSNNVILKKYR (Non-cyclic GFR-binding peptide) [SEQ ID NO: 166] | fulfilled |
| CKIPKASSVPTELEPLPIVYYVGRKPKVEQLSNMIVRS (Non-cyclic GFR-binding peptide) [SEQ ID NO: 174] | not fulfilled |
| GTPGPRNVQCRPTQVQLSAISTLYLEIVRKKPLKNYQTLEDH (Non-cyclic GFR-binding peptide) [SEQ ID NO: 172] | fulfilled |
| GTPGPKASSVPTELSPISTLYKDENEKVVLKYHYDMVVEGSGSR (Non-cyclic GFR-binding peptide) [SEQ ID NO: 167] | fulfilled |
| GTPGPAPTQLSPISVLYKDDSSNVILKYHY (Non-cyclic GFR-binding peptide) [SEQ ID NO: 31] | not fulfilled |
| GTPGPRNVQCRPTQVQLSAISTLYLAAALKNYQTLE (Non-cyclic GFR-binding peptide) [SEQ ID NO: 173] | fulfilled |

All figures here come from patent US20190290729A1.
